Tested on: DNA aptamer or structured DNA GGGACGACTAGTGCCTTCGTGTTGTTCAGGAATCCGGTTCTGTCGTCCC
DETAILS: 10 mM Tris-HCl, pH 7.4
MEASUREMENT NAME: pKd
Just the number, please; pKd means minus log10 of the concentration in mol/L.

For record CN1CC[C@]23c4c5ccc(O)c4O[C@H]2[C@@H](O)C=C[C@H]3[C@H]1C5 the listed pKd is 5.46

---

Tested on: DNA aptamer or structured DNA CTTACGACACAGGGGGTGGCTAGGGTGCGCGGGAGCTGGTCGTAAG
DETAILS: 10 mM Tris-HCl, pH 7.4
MEASUREMENT NAME: binding call; also: call rule not given here

[
  {
    "MOLECULE": "CC(C)Cc1ccc(C(C)C(=O)O)cc1 (configuration not stated)",
    "ENDPOINT RESULT": "no binding"
  },
  {
    "MOLECULE": "COC(=O)C(c1ccccc1)C1CCCCN1 (configuration not stated)",
    "ENDPOINT RESULT": "no binding"
  },
  {
    "MOLECULE": "CNC(C)Cc1ccc2c(c1)OCO2 (configuration not stated)",
    "ENDPOINT RESULT": "binds"
  },
  {
    "MOLECULE": "c1ccc([C@H]2CN3CCSC3=N2)cc1",
    "ENDPOINT RESULT": "binds"
  },
  {
    "MOLECULE": "CNCCC(Oc1ccc(C(F)(F)F)cc1)c1ccccc1 (configuration not stated)",
    "ENDPOINT RESULT": "binds"
  }
]

For record C=C[C@H]1CN2CC[C@@H]1C[C@H]2[C@H](O)c1ccnc2ccc(OC)cc12 the listed binding call is binds

For record CCCC(C(=O)c1ccc2c(c1)OCO2)N1CCCC1 (configuration not stated) the listed binding call is binds
